# experiment_notes: Inhibition of p38 MAPK assessed as substrate phosphorylation at 10 uM by ELISA
Recorded inhibition determines the label; the label ranges are bottom bin = under 20%, middle bin = from 20% up to 30%, top bin = 30% and over

O=C(c1ccco1)N1CCN(Cc2ccc(F)cc2)CC1: top bin
Cn1ccc2cc(NC(=O)N3CCN(Cc4ccc(F)cc4)CC3)ccc21: middle bin

We next turn to a different compound, shown below.
Problem: Bin? Cn1c(C(=O)N2CCN(Cc3ccc(F)cc3)CC2)nc2ccccc21
Solution: top bin

====

Entries and their inhibition
# experiment_notes: Inhibition of p38 MAPK assessed as substrate phosphorylation at 10 uM by ELISA
Lab book: enter the figure in %, no units written.

Problem: Given the compound O=C(c1cn2ccccc2n1)N1CCN(Cc2ccc(F)cc2)CC1 , what is its reported inhibition?
Solution: 33

Problem: Given the compound CC(=O)c1c(C(=O)N2CCN(Cc3ccc(F)cc3)CC2)[nH]c2ccccc12 , what is its reported inhibition?
Solution: 24

Problem: Given the compound CC(=O)c1ccc2[nH]c(C(=O)N3CCN(Cc4ccc(F)cc4)CC3)cc2c1 , what is its reported inhibition?
Solution: 45

Problem: Given the compound O=C(c1cc2c(Br)cccc2[nH]1)N1CCN(Cc2ccc(F)cc2)CC1 , what is its reported inhibition?
Solution: 34

Problem: Given the compound CC(C)(C)OC(=O)n1ccc2cc(CNC(=O)N3CCN(Cc4ccc(F)cc4)CC3)ccc21 , what is its reported inhibition?
Solution: 8

Problem: Given the compound Fc1ccc(CN2CCN(Cc3cc4ccccc4[nH]3)CC2)cc1 , what is its reported inhibition?
Solution: 25

Problem: Given the compound O=C(c1ccco1)N1CCN(Cc2ccccc2)CC1 , what is its reported inhibition?
Solution: 20

Problem: Given the compound O=C(c1nc2ccccc2[nH]1)N1CCN(Cc2ccc(F)cc2)CC1 , what is its reported inhibition?
Solution: 24

Problem: Given the compound CN(C)C(=O)C(=O)c1cn(C)c2ccc(NC(=O)N3CCN(Cc4ccc(F)cc4)CC3)cc12 , what is its reported inhibition?
Solution: 12
